B1: PBXIP1 (parent)
chain: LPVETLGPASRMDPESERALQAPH

variants of: B1; test: protein stability index of a GFP-peptide fusion (GPS, HEK-293T) (PSI 1-6); higher = more stable; conditions: c terminus: a fixed tail appended;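 note: lentivirally expressed fusions sorted by FACS into six bins by GFP to DsRed ratio, PSI derived from sequencing read proportions per bin multiplied by bin number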
Tag: true if measured protein stability index is not below 4, false if it is.

Request: Can A22M be said to have protein stability index at or above 4?
Result: false

Request: Can V3P be said to have protein stability index at or above 4?
Result: true

Request: Can A9D be said to have protein stability index at or above 4?
Result: true

Request: Can P23T be said to have protein stability index at or above 4?
Result: true

Request: Can H24D be said to have protein stability index at or above 4?
Result: true

Request: Can A22Y be said to have protein stability index at or above 4?
Result: true

Request: Can Q21Y be said to have protein stability index at or above 4?
Result: false

Request: Can V3A be said to have protein stability index at or above 4?
Result: true

Request: Can R11E be said to have protein stability index at or above 4?
Result: true

Request: Can L20W be said to have protein stability index at or above 4?
Result: false

Request: Can Q21C be said to have protein stability index at or above 4?
Result: true

Request: Can P23N be said to have protein stability index at or above 4?
Result: true

Request: Can P8V be said to have protein stability index at or above 4?
Result: true

Request: Can G7N be said to have protein stability index at or above 4?
Result: true

Request: Can E4G be said to have protein stability index at or above 4?
Result: true

Request: Can L6I be said to have protein stability index at or above 4?
Result: false

Request: Can Q21N be said to have protein stability index at or above 4?
Result: true
